All figures here come from paper PMC5540273.

- Tested on: IKK-alpha
- Construct: gene CHUK
- TEST_CONTEXT: concentration: 1 μM, replicates: in singlicate; n = 1;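 note: KINOMEscan kinase panel screen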
Each item that follows carries a reported %Inh.

Before answering, review these 3 worked examples.
CC(C)(C)c1ccc(C(=O)Nc2cn3cc(-c4ccccc4)ccc3n2)cc1 ... 5%
COC(=O)c1c(-c2ccccc2)c2cc(Br)ccc2c(=O)n1Cc1ccc(NC(=O)CCC(=O)O)cc1 ... 0%
CCc1nc(-c2cccc(C)c2)c(-c2ccncc2)s1 ... 0%

// returns %Inh for `COc1ccc(-n2cnc3c(N)ncnc32)cc1` with IKK-alpha; value = 0%

====

- Tested on: MST1
- Construct: gene STK4
- TEST_CONTEXT: concentration: 1 μM, replicates: in singlicate; n = 1
ENDPOINT: %Inh

Entry Nc1n[nH]c2ncc(-c3ccccc3)cc12 [SB-517081] ; %Inh = 0%

The value of %Inh measured for the compound COc1cc(Nc2nccc(N3CCC(NC(=O)C(C)c4ccc(Cl)cc4)C3)n2)cc(OC)c1OC (stereo not drawn) [GSK1379757] turned out to be 8%

%Inh for `COc1ccc(-c2cc3c(C)nc(N)nc3n([C@H]3CC[C@H](O)CC3)c2=O)cn1` is 0%

====

- System: HCK
- TEST_CONTEXT: concentration: 1 μM, replicates: in singlicate; n = 1
Measured %Inh by item
Give the value, in units of %, as a plain number.

Solved entries (count: 4):
CCc1ccc(-c2ccc3c(c2)-c2nn(C)cc2S(=O)(=O)N3C)cc1 ... 2
COc1cc(Nc2nccc(N3CCC(NC(=O)C4COc5ccccc5O4)C3)n2)cc(OC)c1OC (centres unmarked) ... 0
COc1ccc(-c2cc3c(C)nc(N)nc3n([C@H]3CC[C@H](OCCO)CC3)c2=O)cn1 ... 13
Cc1cc(Nc2nc(-c3cccc(C)n3)nc3ccccc23)ccn1 ... 7

The recorded %Inh for entry `CCC(=O)c1c(-c2ccccc2)c2cc(Cl)ccc2c(=O)n1Cc1cc(S(C)(=O)=O)n(CCC(C)(C)O)n1` equals 10

====

Examples of compounds with documented %Inh follow.
- System: ASK1
- Construct: gene MAP3K5
- TEST_CONTEXT: concentration: 1 μM, replicates: in singlicate; n = 1
Write the number in % without appending the unit.

Recorded result, `Nc1n[nH]c2ncc(-c3ccccc3)cc12` , %Inh: 0

====

- Test system: SGK2
- TEST_CONTEXT: concentration: 1 μM, replicates: in singlicate; n = 1
ENDPOINT: %Inh (%)
Output spec: scalar in %, unitless text.

Worked cases, answers included:
Cc1nnc(-c2ccc(C)c(-c3ccc(C(=O)O)cc3)c2)o1 ... 0
Nc1n[nH]c2ncc(-c3ccccc3)cc12 ... 2
CCn1c(-c2ccoc2)nc2cnccc21 ... 5
Nc1ncnc2c1ncn2-c1ccc(Cl)cc1 ... 0

The record that follows has no %Inh shown yet.
Looking up COc1cc(Nc2nccc(N3CCC(NC(=O)C4COc5ccccc5O4)C3)n2)cc(OC)c1OC (centres unmarked) , I see its %Inh listed as 0

====

- Test system: MAP3K4
- TEST_CONTEXT: concentration: 1 μM, replicates: in singlicate; n = 1
ENDPOINT: %Inh (%)
Number in %, nothing else.

Lab note: measured %Inh of CCCC(=O)Nc1n[nH]c2ncc(-c3cccc4ccccc34)cc12 [SB-642057] was 34
